Source listed as the Human Domainome abundance scans (Beltran et al. 2025).

B1: Storkhead-box protein 2, residues 64 to 141; numbered along this chain, Q9P2F5 (parent)
chain: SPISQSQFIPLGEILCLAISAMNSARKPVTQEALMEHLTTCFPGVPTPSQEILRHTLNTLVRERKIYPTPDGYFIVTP

Variants of: B1
METHOD: abundance fitness (aPCA) (normalised: wild type 0, dead -1); higher = more abundant; growth selection in yeast, the domain comes from the species named
RUN PARAMETERS: Homo sapiens

MUTATION ANNOTATION: L11H
abundance fitness: -0.051
--
MUTATION ANNOTATION: S6V
abundance fitness: -0.171
--
MUTATION ANNOTATION: R26G
abundance fitness: -0.009
